Collected abundance fitness values appear next to each entry.
B1: Gamma-crystallin C, residues 4 to 79; numbered along this chain, P07315 (parent)
chain: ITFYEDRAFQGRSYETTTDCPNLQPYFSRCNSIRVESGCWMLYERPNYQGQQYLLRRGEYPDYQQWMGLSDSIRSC

- Variants of: B1
- Method Notes: abundance fitness (aPCA) (normalised: wild type 0, dead -1); higher = more abundant; growth selection in yeast, the domain comes from the species named
- Condition Details: Homo sapiens
Answer field: number only, no words.

May I ask what abundance fitness has been recorded for `Q10T` ?
0.034

Another: `Y26Q`
-0.077

Another: `S28R`
-0.045

Another: `D71I`
-0.106

Another: `W40T`
-0.43

Another: `Q49E`
0.098

Another: `Y53P`
-0.947

Another: `F27A`
0.124

Another: `P61K`
0

Another: `Y53W`
0.084

***
May I ask what abundance fitness has been recorded for `S28D` ?
0.166

Another: `Q52D`
0.102

Another: `Y4E`
-0.848

Another: `W40I`
0.01

Another: `P61H`
-0.205

Another: `C20V`
-0.133

Another: `R29W`
-0.053

Another: `T18V`
-0.03

Another: `E59S`
0.049

Another: `N22F`
0.17

Another: `G58E`
-0.272

Another: `L55N`
-0.85

Another: `L42N`
-0.967

Another: `E59I`
-0.789
